- System: PAM212
- procedure-details: Cytotoxicity against normal murine keratinocytes Pam212 (obtained by MTT assay).
- Type: functional, cell-based, Mus musculus
endpoint: IC50 (µM)
Just the number in µM, nothing appended.

In [3]: df
Out[3]:
   record_sequence  unit_tag  experimental_value
0        CISPLATIN        µM                 114

Okay, now this sequence:
Request: What value of measured IC50 is listed for TRANSPLATIN ?
Response: 123

Hello, the source for this data is ChEMBL document CHEMBL1132442, in case you need it.
